# target.system: TYK2 (Homo sapiens, UniProt P29597)
# Sequence (P29597 871-1187 limits assumed): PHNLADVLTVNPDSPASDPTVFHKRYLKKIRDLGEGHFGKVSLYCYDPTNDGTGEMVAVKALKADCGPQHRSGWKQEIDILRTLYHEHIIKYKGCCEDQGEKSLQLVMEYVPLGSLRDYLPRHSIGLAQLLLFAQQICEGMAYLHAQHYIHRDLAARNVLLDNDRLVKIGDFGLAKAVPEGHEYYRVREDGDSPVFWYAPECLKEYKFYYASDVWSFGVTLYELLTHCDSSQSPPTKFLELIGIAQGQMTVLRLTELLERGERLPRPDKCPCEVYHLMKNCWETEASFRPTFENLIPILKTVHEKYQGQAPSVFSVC
readout.label: IC50
Output should be the measured figure followed by the unit it is expressed in.

# molecule O=C(Nc1cn2c(-c3ccc(CN4CCS(=O)(=O)CC4)cc3F)cccc2n1)C1CC1 [Crystal form A] ; its IC50 = 653 nM

----------
# assay.remarks: Single dose PK study
# Type: in vivo
# test.parameters: female, SD, rat, plasma, po, 3 mg/kg, female SD rats, single oral dose 3 mg/kg, 0.5% CMC-Na suspension, read-out: Cmax
readout.label: Cmax (ng/mL)
Expressed in ng/mL, but write only the number.

# compound O=C(Nc1cn2c(-c3ccc(CN4CCS(=O)(=O)CC4)cc3F)cccc2n1)C1CC1 [Free base] ; its Cmax = 352

FYI, the data here is from patent US12637457B2.
